All figures here come from patent US20230257355A1.

- subject-of-test: ASM (Homo sapiens, UniProt P17405)
- Construct: A protein in cultivated cells was extracted, a buffer and a fluorescently-labeled reaction substrate were added; endogenous in cells
- Sequence (P17405 47-631, species assumed): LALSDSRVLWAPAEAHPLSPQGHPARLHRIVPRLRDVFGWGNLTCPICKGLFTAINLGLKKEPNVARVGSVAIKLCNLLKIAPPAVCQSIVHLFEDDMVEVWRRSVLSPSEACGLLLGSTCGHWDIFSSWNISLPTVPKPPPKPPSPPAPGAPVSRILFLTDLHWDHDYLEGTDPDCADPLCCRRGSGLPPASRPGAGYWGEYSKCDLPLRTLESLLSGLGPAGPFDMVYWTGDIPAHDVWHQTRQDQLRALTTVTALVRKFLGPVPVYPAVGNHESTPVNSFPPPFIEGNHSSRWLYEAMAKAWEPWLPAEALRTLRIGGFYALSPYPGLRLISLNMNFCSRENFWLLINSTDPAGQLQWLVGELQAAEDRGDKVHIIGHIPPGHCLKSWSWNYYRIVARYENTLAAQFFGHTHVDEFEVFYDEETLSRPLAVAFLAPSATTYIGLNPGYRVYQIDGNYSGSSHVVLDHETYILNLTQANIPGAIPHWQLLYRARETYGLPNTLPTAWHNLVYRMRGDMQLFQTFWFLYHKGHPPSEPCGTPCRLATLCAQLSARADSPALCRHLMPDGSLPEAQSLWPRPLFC
- experiment-summary: Inhibition of compounds on ASM activity (cell protein extract, fluorescently-labeled substrate)
- Type: biochemical
- test-parameters: 1 µM
recorded-metric: inhibition at 1 µM (%)

Some solved entries appear below for comparison.
molecule	display-unit	inhibition at 1 µM
O=C(NO)c1ccc2ncn(-c3ccc(OCc4ccccn4)cc3)c2c1 [Compound I-13]	%	14
O=C(NO)c1ccc2ncn(-c3ccc(OCc4ccc(F)cc4)cc3)c2c1 [Compound I-10]	%	20
N#Cc1ccc(COc2ccc(-n3cnc4ccc(C(=O)NO)cc43)cc2)cc1 [Compound I-11]	%	8
COc1ccc(COc2ccc(-n3cnc4ccc(C(=O)NO)cc43)cc2)cc1 [Compound I-12]	%	70
O=C(NO)c1ccc2ncn(-c3ccc(OCc4cc(C(F)(F)F)cc(C(F)(F)F)c4)cc3)c2c1 [Compound I-9]	%	80

a = O=C(NO)c1ccc2ncn(-c3ccc(OCc4ccc(C(F)(F)F)cn4)cc3)c2c1 [Compound I-14]
b = O=C(NO)c1ccc2ccn(-c3ccc(OCc4ccc(C(F)(F)F)cc4)cc3)c2c1 [II-1]
Look at a and b . Which one has the lower recorded inhibition at 1 µM number? Provide the label of your selected option as the answer.
a
